Target: GR (Homo sapiens)
Sequence (P04150 1-777): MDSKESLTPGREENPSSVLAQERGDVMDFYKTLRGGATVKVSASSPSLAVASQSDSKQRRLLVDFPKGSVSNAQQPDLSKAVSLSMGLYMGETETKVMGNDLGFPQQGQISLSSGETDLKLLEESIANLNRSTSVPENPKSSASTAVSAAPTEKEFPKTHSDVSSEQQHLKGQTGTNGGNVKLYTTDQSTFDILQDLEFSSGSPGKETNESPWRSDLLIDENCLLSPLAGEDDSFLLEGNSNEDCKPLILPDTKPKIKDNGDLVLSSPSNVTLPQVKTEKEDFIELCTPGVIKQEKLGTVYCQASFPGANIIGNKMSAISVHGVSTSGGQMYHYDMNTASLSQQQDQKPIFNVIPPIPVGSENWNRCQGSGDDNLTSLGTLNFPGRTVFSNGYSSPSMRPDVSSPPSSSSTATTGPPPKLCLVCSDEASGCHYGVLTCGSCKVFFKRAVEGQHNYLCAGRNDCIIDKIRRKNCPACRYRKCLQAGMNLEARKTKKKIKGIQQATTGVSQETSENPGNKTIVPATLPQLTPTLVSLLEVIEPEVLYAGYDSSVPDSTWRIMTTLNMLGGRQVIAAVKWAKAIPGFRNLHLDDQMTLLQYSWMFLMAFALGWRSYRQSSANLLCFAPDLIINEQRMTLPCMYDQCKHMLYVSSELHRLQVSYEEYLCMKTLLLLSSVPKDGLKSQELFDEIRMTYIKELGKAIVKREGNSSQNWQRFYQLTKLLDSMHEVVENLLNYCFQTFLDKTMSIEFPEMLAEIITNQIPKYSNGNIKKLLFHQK
Assay: Competitive binding, full length human glucocorticoid receptor
Parameters: made in house; host or cells: HI (Hi5) insect cells, baculovirus; cellular lysate
Settings: tritiated ligand displacement

[
  {
    "entry-smiles": "C[C@]12C[C@H](c3ccc(-c4ccoc4)cc3)C3=C4CCC(=O)C=C4CC[C@H]3[C@@H]1CC[C@]21OCCC1=C(F)F",
    "IC50 (nM)": 226
  }
]
